Where these numbers come from: patent US4943579A

assay_remarks: Aqueous solubility
Format: physicochemical
experimental_setup: water
quantity_kind: solubility (µg/mL)
Numbers only; they are read as µg/mL.

Request: Name the recorded solubility of the molecule listed here: CC[C@@]1(O)C(=O)OCc2c1cc1n(c2=O)Cc2cc3ccccc3nc2-1
Response: 50

====

assay_remarks: Aqueous solubility
Type: physicochemical
experimental_setup: water, read-out: Aqueous solubility
Where a name gives a salt, the structure may show the parent alone.
quantity_kind: solubility (µg/mL)
Numbers only; they are read as µg/mL.

Request: Name the recorded solubility of the molecule listed here: CC[C@@]1(OC(=O)CNC)C(=O)OCc2c1cc1n(c2=O)Cc2cc3ccccc3nc2-1
Response: 4000

Request: Name the recorded solubility of the molecule listed here: CC[C@@]1(OC(=O)CCC(=O)O)C(=O)OCc2c1cc1n(c2=O)Cc2cc3ccccc3nc2-1 [Formula 14, sodium salt]
Response: 13000

Request: Name the recorded solubility of the molecule listed here: CC[C@@]1(OC(=O)C(N)CCCCCN)C(=O)OCc2c1cc1n(c2=O)Cc2cc3ccccc3nc2-1 (stereo partly shown)
Response: 15000

From here, focus on the item given below.
Request: Name the recorded solubility of the molecule listed here: CC[C@@]1(OC(=O)C(N)CCC(=O)O)C(=O)OCc2c1cc1n(c2=O)Cc2cc3ccccc3nc2-1 (stereo partly shown)
Response: 6000
